Sourced from PubChem BioAssay (NCI)

System: SW-620 colon
assayInfo: NCI-60 one-dose screen, 48 h (100 = growth as untreated, 0 = no growth, -100 = all killed)
testConditions: 10 µM unless noted
About 83,000 compounds went through this panel and 20% of them were active in at least one assay; those are over-represented in the sample as a whole.
valueKind: growth (%)
Express the result in % but write the number alone.

## Input For COc1nc2ccc(C)cc2cc1-c1nc2c(cnn2-c2ccccc2)c(=O)[nH]1 , write its growth.
## Output 58.5

## Input For CCc1cccc2c3c(sc12)C(c1ccc(Cl)cc1)C(C#N)=C(N)O3 (stereo not given) , write its growth.
## Output 33.4
